# Test system: Mycobacterium tuberculosis
# METHOD: Cornell - Phenotypic assay to identify agents that inhibit growth of Mycobacterium tuberculosis
# Assay type: functional
# Set-up: scale not given: direction of the effect not stated beside the values
# CONDITION SUMMARY: 10 mM as filed; unlikely as a test dose
In all, about 53,000 compounds went through this assay and about 900 (1.7%) showed an effect of 50% or more. Many of the other results were omitted from the sample, so strong results are more common in it than they were.
ENDPOINT: Percent Effect

CCc1cn[nH]c1C1CCN(c2cc(C)c3ccc(OC)cc3n2)CC1: 2.528%
O=C(O)[C@@H]1CN(C(=O)CCCc2ccc(F)cc2)C[C@H]1C1CC1: -11.2%
CCn1cc(S(=O)(=O)NC(CO)Cc2c[nH]c3ccccc23)cn1 (stereo not given): -1.971%
Cc1noc(NC(=O)c2ccc(C)c(F)c2)n1: 108.6%
CCc1ccccc1-c1cc(C)nc(N)n1: 13.97%
Cc1nc2c(NC(CC(C)(C)C)c3cccnc3)ncnc2o1 (stereo not given): -7.649%
CCc1cn[nH]c1C1CCN(c2cc(C)c3cc(OC)ccc3n2)CC1: 4.644%
O=c1c(S(=O)(=O)N2CCCCC2)cccn1Cc1ccccc1Cl: 9.959%
CS(=O)(=O)N1CCCC12CCCN(S(=O)(=O)c1cc(F)cc(F)c1)C2 (stereo not given): 2.906%
CCCN(CC(=O)NC)C(=O)c1ccc(-c2nc(C)cs2)cc1: 8.736%
Cc1nn(C)c(C)c1C(=O)NCc1cc(N(C)C)nc2ccccc12: -29.39%
COc1cccc(S(=O)(=O)N2CCOC(C)(C(N)=O)C2)c1 (stereo not given): 8.35%
COc1ccc(S(=O)(=O)N2CCOC(C)(C(N)=O)C2)cc1 (stereo not given): 55.81%
Cc1cc(O)cc(C2CCCN2C(=O)c2ccncc2)n1 (stereo not given): 3.916%
CS(=O)(=O)N1CCCC12CCCN(S(=O)(=O)c1ccc(F)cc1)C2 (stereo not given): -19.89%
Cc1cc(NC(=O)c2ccc(C)c(F)c2)[nH]n1: 32.04%
CCN1CCN(C(C)(C)CNc2nc(C)cc(C3CCC3)n2)CC1: 8.458%
CCCOc1ccc(Cl)cc1CNc1ncnc2oc(C)nc12: 65.32%
COc1cc(C(=O)Nc2nc(C)no2)ccc1C: 102.2%
CC(C)N1CCCC1c1nc(N(C)C)ncc1I (stereo not given): 5.368%
